Data provenance: patent US10344001B2

Reported property: melting point

Consider the following illustrative entries.
Reported melting point for COc1cc(C(=O)/C=C/c2ncc[nH]2)ccc1O [KAUS-36] : what is it?
> 250 °C (dec.)

Would you kindly repeat that for O=C(/C=C/c1ncc[nH]1)c1ccc(OCc2ccccc2)cc1 [KAUS-34] ?
> 250 °C (dec.)

Would you kindly repeat that for O=C(/C=C/c1ncc[nH]1)c1ccc(O)cc1 [KAUS-32] ?
250 to 253 °C

Others:
Reported melting point for COc1ccc(C(=O)/C=C/c2ncc[nH]2)cc1OC [KAUS-39] : what is it?
222 to 223 °C

====

Biological target: Hb in normal whole blood (Homo sapiens, UniProt P68871+P69905)
Construct: Normal whole blood was collected from adult donors at the Virginia Commonwealth University; endogenous in cells; host or cells: erythrocytes in normal adult human whole blood (hematocrit 20%)
Sequence (P69905 2-142 limits assumed): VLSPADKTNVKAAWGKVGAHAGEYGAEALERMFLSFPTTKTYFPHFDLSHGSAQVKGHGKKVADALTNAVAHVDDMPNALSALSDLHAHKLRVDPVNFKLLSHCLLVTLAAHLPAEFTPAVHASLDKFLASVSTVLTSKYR
Sequence (P68871 2-147 limits assumed): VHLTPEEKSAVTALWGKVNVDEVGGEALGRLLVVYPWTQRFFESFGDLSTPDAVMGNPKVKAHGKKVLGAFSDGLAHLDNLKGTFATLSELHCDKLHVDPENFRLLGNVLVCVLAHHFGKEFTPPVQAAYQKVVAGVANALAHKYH
Assay: Oxygen equilibrium curve (OEC) study in normal whole blood, multipoint tonometry
Type: cell-based
Conditions: hematocrit 20%, 1 mM compound, 1.5 h at 37° C.
Reported property: OEC effect (increase of Hb affinity for oxygen, left shift) (%)
# value in %; strip the unit string

Consider the following illustrative entries.
Reported OEC effect (increase of Hb affinity for oxygen, left shift) for O=C(/C=C/c1ncc[nH]1)c1ccc(OC2CCCCO2)cc1 (centres unmarked) : what is it?
9.9

Would you kindly repeat that for `COc1cccc(C(=O)/C=C/c2ncc[nH]2)c1` ?
8

Others:
Reported OEC effect (increase of Hb affinity for oxygen, left shift) for `COc1ccc(C(=O)/C=C/c2ncc[nH]2)cc1` : what is it?
8

Would you kindly repeat that for O=C(O)CCCOc1ccc(C(=O)/C=C/c2ncc[nH]2)cc1Cl [KAUS-15, reference compound] ?
1

Would you kindly repeat that for C=C(CC)C(=O)c1ccc(OCC(=O)O)c(Cl)c1Cl [Ethacrynic Acid, ethacrynic acid, reference compound] ?
6.1
